Each entry below carries its recorded pIC50.
Target sequence: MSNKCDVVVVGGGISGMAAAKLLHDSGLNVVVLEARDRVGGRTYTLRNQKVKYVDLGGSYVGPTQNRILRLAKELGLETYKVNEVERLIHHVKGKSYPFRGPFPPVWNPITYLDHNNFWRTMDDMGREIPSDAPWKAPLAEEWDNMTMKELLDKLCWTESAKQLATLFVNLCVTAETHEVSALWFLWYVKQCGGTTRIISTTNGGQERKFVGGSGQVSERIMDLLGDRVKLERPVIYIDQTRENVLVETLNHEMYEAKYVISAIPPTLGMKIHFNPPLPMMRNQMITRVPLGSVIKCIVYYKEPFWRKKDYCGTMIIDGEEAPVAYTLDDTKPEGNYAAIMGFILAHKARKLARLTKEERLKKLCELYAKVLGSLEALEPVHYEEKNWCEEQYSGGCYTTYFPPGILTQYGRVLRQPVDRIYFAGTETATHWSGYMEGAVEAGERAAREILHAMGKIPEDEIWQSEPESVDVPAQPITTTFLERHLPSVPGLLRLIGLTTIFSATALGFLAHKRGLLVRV
Please report pIC50 as the negative decimal logarithm of the molar concentration, giving only the number.

molecular_string: COc1cc(C(=O)Nc2cc3ccccc3oc2=O)cc(OC)c1OC
pIC50: 4.14

Fill in the blank: the reported pIC50 of "COc1ccc(C(=O)Nc2cc3ccccc3oc2=O)cc1" is ____.
4.52

And for "COc1ccc(C(=O)Nc2cc3ccccc3oc2=O)cc1OC" ?
4.23

And for "O=C(Nc1cc2ccccc2oc1=O)c1ccc(Cl)c(Cl)c1" ?
5.23

And for "Cc1ccc(C(=O)Nc2cc3ccccc3oc2=O)cc1" ?
5.10

And for "O=C(Nc1cc2ccccc2oc1=O)c1ccc(Cl)cc1" ?
5.71
